Entries annotated with measured melting point

compound	melting point
CCOC(=O)c1cc(O)ccc1O	81 to 82 °C
CC(=O)OC1CSC(Oc2ccc3ncsc3c2)C(OC(C)=O)C1OC(C)=O (stereo not given)	166 °C
O=C(O)COCc1cc2cc(C(F)(F)F)ccc2n1S(=O)(=O)c1ccccc1	158 to 160 °C
CC(=O)NC[C@H]1CN(c2ccc(C3=CCN(C(=O)OCc4ccccc4)CC3)cc2)C(=O)O1	166 to 169 °C
CCN(CC)CCNc1cc(Cl)cc(NCCN(CC)CC)c1[N+](=O)[O-]	90 °C
CN1CCN(c2cccc3c2C[C@H](NC(=O)c2csc(-c4ccncc4)n2)CC3)CC1	187 to 188 °C
CCc1ccc(-c2ccc(NC(=O)OC(C)(C)C)c([N+](=O)[O-])c2)cc1	94 to 99 °C
Cc1cccc(SCn2cc(F)cnc2=O)c1	124 °C
CC(C)N(CCC(c1cccs1)c1ccc(O)cc1O)C(C)C (stereo not given)	102 to 109 °C
COC(=O)CC(=O)c1ccc2c(c1)CCC(=O)N2C	175 to 176 °C
CCc1cc(C2=CCN(CCCC(O)c3ccc(F)cc3)CC2)[nH]n1 (stereo not given)	140 to 142 °C
O=c1ccc(S(=O)(=O)n2nc(Cl)c3ccccc32)n[nH]1	238 to 239 °C
Clc1cc2nc3cc4ccccc4[nH]c-3c2cc1Br	> 246 °C
CC(C)(COc1ncc(C(F)(F)F)cc1Cl)C(=O)C(Oc1ccc(F)cc1)n1cncn1 (stereo not given)	104 to 106 °C
CCCCCCCCCCCc1nnc2n1-c1sc(CC)cc1C(c1ccc(OC)cc1)OC2 (stereo not given)	91 to 93 °C
Cc1c(F)c(N2CCNCC2)cc2c1c(=O)c(C(=O)O)cn2C1CC1	226 to 228 °C
O=C(NC=C(c1ccccc1)c1ccccc1)c1sc2ccc(F)cc2c1O	186 to 189 °C
O=C(c1ccc(C2=CCCc3ccccc32)cc1)N1Cc2cccn2Cc2ccccc21	81 °C
Cc1cc(C)c(Nc2nc(C)ccc2S(=O)(=O)c2ccc(OCc3ccc(C#N)cc3)cc2)c(C)c1	208 to 210 °C
CCC1OC(=O)C(C)C(OC2CC(C)(OC)C(O)C(C)O2)C(C)C(OC2OC(C)CC(N(C)C)C2O)C(C)(OC)CC(C)C(=O)C(C)C(O)C1(C)O (stereo not given)	100 °C

---

experimentalEndpoint: melting point

compound	experimentalEndpoint	assayResult
N=C(NCc1c[nH]c2ccccc12)C(Cl)(Cl)Cl	melting point	136 to 138 °C
NC(=O)c1ccccc1NC(=O)c1ccc(-n2nc(C(F)(F)F)cc2C(F)(F)F)cc1	melting point	195 to 196 °C
Cn1ccc2c1CCn1ncnc1C2=C1CCNCC1	melting point	183 °C
O=CNNc1ccc(NS(=O)(=O)c2cccc([N+](=O)[O-])c2)cc1	melting point	188 to 191 °C
CCCN(CCCCNC(=O)N1CCc2cc(OC)c(OC)cc2C1)C1CCc2ncsc2C1 (stereo not given)	melting point	106 °C

---

Entries annotated with measured melting point

compound	melting point
CC(C)(C)N1CC(=O)Nc2ccc(Cl)cc2C1=O	177 to 178 °C
O=C(O)c1ccccc1Oc1cc(Cl)c(Cl)cc1NS(=O)(=O)c1cc(C(F)(F)F)cc(C(F)(F)F)c1	139 to 140 °C
CCOC(=O)CCNC(=O)Nc1ccccc1CCc1cc(C(C)(C)C)c(O)c(C(C)(C)C)c1	158 to 159 °C
COC(=O)CSc1cccc(Br)n1	32 to 34 °C
OC1CSC(Oc2ccc(-c3cccnc3)cc2F)C(O)C1O (stereo not given)	207 °C

---

Entries annotated with measured melting point

compound	melting point
N#CC1Cc2cc3c(cc21)NCC3 (stereo not given)	85 to 87 °C
CCCC(=O)CCCCCC(=O)N[C@@H](C)C(=O)OC	51 to 54 °C
c1ccc(COc2ccc3nc(-c4ccc(OCc5ccccc5)c(C56CC7CC(CC(C7)C5)C6)c4)[nH]c3c2)cc1	265 to 275 °C
Cc1cc2c(cc1C(=O)c1ccc(C(O)=NOCc3ccccc3)cc1)C(C)(C)CCC2(C)C	169 to 172 °C
CCn1cccc1Cc1cccc(NC(N)=O)c1	56 to 58 °C
COC(=O)C1(O)CN2CCC1CC2 (stereo not given)	122 °C
O=S1(=O)NCN(C2CC2)c2ccc(O)cc21	187 to 189 °C
CC(=O)SCCC(=O)N1N=C(c2ccc(S(N)(=O)=O)cc2)CC1C(=O)O (stereo not given)	183 to 185 °C
Cc1c(C(N)=O)oc2c(C(=O)NCCCN3CCN(c4cc(Cl)ccc4O)CC3)cccc2c1=O	116 to 158 °C
CCCCNNc1nc(C)c(C(=O)OCC)c(Cl)c1[N+](=O)[O-]	59 to 61 °C

---

experimentalEndpoint: melting point

compound	assayResult
CCOC(=O)C(C)Oc1cc(F)ccc1[N+](=O)[O-] (stereo not given)	64 to 65 °C
CCN1CCC2(CC1)OC(c1ccccc1)c1ccccc12 (stereo not given)	113 to 115 °C
COC(=O)C1=C(C)NC(CO)=C(C(=O)OC)C1c1cccc([N+](=O)[O-])c1 (stereo not given)	145 to 146 °C
CN1CCN(C(=O)COc2cc(-c3ccccc3)nc3ccccc23)CC1=O	140 °C
CCOC(=O)C(Cc1cccc2ccccc12)(Cc1cccc2ccccc12)C(=O)OCC	79 to 81 °C

---

Entries annotated with measured melting point

compound	melting point
OC(CN1CC=C(c2ccccc2)CC1)c1ccc(Cc2ccc(Cl)cc2)cc1 (stereo not given)	135 to 137 °C
COc1cccc2c(CCCN(C3CCC3)C3COc4c(F)ccc(C(N)=O)c4C3)coc12 (stereo not given)	131 to 140 °C
Cc1c(Cc2ccc(F)cc2)c(=O)oc2cc(OC(=O)N(C)c3ccccc3)ccc12	185 to 186 °C
OCc1cccc(-c2ccc(-c3cn([C@H]4CN5CCC4CC5)nn3)cc2)c1	207 °C
OCCc1cnc(Nc2n[nH]c3ccc(-c4ncccc4Cl)cc23)s1	206 to 208 °C
C=CCC(O)(Cn1cncn1)C1(Cl)CC1 (stereo not given)	75 to 76 °C
CSc1c(Cl)c(O)nn1C	163 to 165 °C
NC(=O)c1cc(C(=O)O)c2c(c1)C(C(=O)O)CCN2 (stereo not given)	265 to 266 °C
COc1ccc(Cl)cc1-c1c(N)c(=O)[nH]c2cc([N+](=O)[O-])ccc12	293 to 295 °C
C=C(CCC(C)C1CCC2C3=C(C(=O)CC21C)C1(C)CCC(=O)C(C)C1CC3O)C(C)C(=O)O (stereo not given)	196 to 198 °C
COc1ccc(-c2c(S(C)(=O)=O)ccc(C(=O)c3cnn(C(C)(C)C)c3OC(C)=O)c2C)cc1	160 to 163 °C
CN(CCOC1CCCCO1)c1cc(NC(=O)OC(C)(C)C)c([N+](=O)[O-])cc1C#Cc1ccc(F)cc1 (racemic)	134 °C
CCOC(=O)c1cnc(Nc2ccccc2)[nH]c1=O	267 to 269 °C
COc1cc2c(C)c(C#N)c(SC)nc2cc1OC(C)=O	225 to 230 °C
Cn1cc(-c2ccccc2)c(=O)c(-c2cccc(S(C)(=O)=O)c2)c1	176 to 181 °C
CC(C)(C)C(=O)c1c[nH]c2ncc(-c3cccc(NS(=O)(=O)c4ccc(N)cc4)c3)nc12	264 to 266 °C
COc1ccc(-c2nc(C(=O)NC(=N)N)sc2-c2ccc(OC)cc2)cc1	253 to 255 °C
C#CCOc1ccccc1S(N)(=O)=O	143 to 145 °C
CCCCc1c(C=O)cc(OC)c2ccccc12	51 to 52 °C
Cc1nn(-c2ccc(F)cc2)cc1C(=O)Nc1ccc(OCC(C)(C)C)c(Br)c1	193 to 194 °C

---

molecule	melting point
OCC=C(c1ccc(I)cc1)c1ccc(I)cc1	83 to 85 °C
CSc1nnc(-c2ccc(OCC(O)CNCCOc3ccc(O)c(C(N)=O)c3)cc2)n1C (stereo not given)	123 to 125 °C
N#Cc1ncn2c1N(C(=O)CN1CCC(c3ccccc3)CC1)CC=C2c1cccc(C(F)(F)F)c1	174 to 175 °C
COc1cc2c(c3c1OC(C)(C)C3)C(c1cccc(C(=O)Nc3c(Cl)cncc3Cl)c1)=NC(C)(C)C2	227 to 228 °C
COC(=O)CCCOc1ccc2c(c1OC)N=C(C=C(O)c1cccnc1)N1CCN=C21	199 to 200 °C

---

Entries annotated with measured melting point

compound	melting point
O=C(NS(=O)(=O)c1ccc(O)cc1)c1ccc(Cl)cc1Cl	155 to 157 °C
O=C(O)CCCC(=O)N1CCN(c2cc3c(cc2F)c(=O)c(C(=O)O)c2sccn23)CC1	276 to 278 °C
CCC(C)c1cccc(C(C)CC)c1C(=O)O (stereo not given)	125 to 126 °C
CCOC(=O)CCc1ccc2[nH]c(-c3cccnc3)c(C)c2c1	> 275 °C
Cc1[nH]c(=O)c(C#N)cc1-c1ccc(CC(=O)O)cc1	280 to 282 °C
CCCCCCCN1C(=O)C2CC2(c2ccc(N)cc2)C1=O (stereo not given)	78 to 79 °C
CN1C[C@H](CCN2CCC(O)(c3ccc(Cl)cc3)CC2)C=C2c3cccc4[nH]cc(c34)C[C@H]21	154 to 157 °C
Cc1cc(C(=O)NCc2cccc3c2C(=O)N(C2CCC(=O)NC2=O)C3=O)nn1C (stereo not given)	213 to 215 °C
CC(Oc1ncn(-c2ccc(C(F)(F)F)cc2)n1)C(=O)NC1CC1 (stereo not given)	175 to 177 °C
Cc1ccc(C)c(OCCCC(C)(C)C(=O)Nc2cccc(C(=O)O)c2)c1	161 °C
